Test system: S. pneumoniae D39V;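 also: OD595 on entry to stationary phase over no-drug wells; at most 1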
assayRemarks: fitness (endpoint OD595 vs no drug) (fraction); higher = more growth
statedConditions: first compound 0.1725 µg/mL; partner 4 µg/mL
measurementLabel: fitness
Returns: the value as a bare number; no unit string appended.

# count of solved cases: 3
{"columns": ["molecule", "targetOrSystem", "measurementLabel", "measuredResult"],
 "data": [
  ["C[C@H]1COc2c(N3CCN(C)CC3)c(F)cc3c(=O)c(C(=O)O)cn1c23 [Levofloxacin] + Cc1cc(NS(=O)(=O)c2ccc(N)cc2)no1 [Sulfamethoxazol]", "S. pneumoniae D39V", "fitness", 0.967],
  ["C[C@H]1COc2c(N3CCN(C)CC3)c(F)cc3c(=O)c(C(=O)O)cn1c23 [Levofloxacin] + CC1=C(C(=O)O)N2C(=O)[C@@H](NC(=O)[C@H](N)c3ccccc3)[C@H]2SC1 [Cephalexin]", "S. pneumoniae D39V", "fitness", 0.0529],
  ["C[C@H]1COc2c(N3CCN(C)CC3)c(F)cc3c(=O)c(C(=O)O)cn1c23 [Levofloxacin] + CN[C@@H]1[C@H](O)[C@H](NC)[C@H]2O[C@@]3(O)C(=O)C[C@@H](C)O[C@H]3O[C@@H]2[C@H]1O [Spectinomycin]", "S. pneumoniae D39V", "fitness", 0.875]
]}

Let us examine a further case.
q: Consider the molecule C[C@H]1COc2c(N3CCN(C)CC3)c(F)cc3c(=O)c(C(=O)O)cn1c23 [Levofloxacin] + COc1ccc(C[C@H](N)C(=O)N[C@H]2[C@@H](O)[C@H](n3cnc4c(N(C)C)ncnc43)O[C@@H]2CO)cc1 [Puromycin] . State its measured fitness.
a: 0.796
